All figures here come from paper PMC8748714.

Molecular target: T1, GLP-1R V194A (Homo sapiens)
T1 chain: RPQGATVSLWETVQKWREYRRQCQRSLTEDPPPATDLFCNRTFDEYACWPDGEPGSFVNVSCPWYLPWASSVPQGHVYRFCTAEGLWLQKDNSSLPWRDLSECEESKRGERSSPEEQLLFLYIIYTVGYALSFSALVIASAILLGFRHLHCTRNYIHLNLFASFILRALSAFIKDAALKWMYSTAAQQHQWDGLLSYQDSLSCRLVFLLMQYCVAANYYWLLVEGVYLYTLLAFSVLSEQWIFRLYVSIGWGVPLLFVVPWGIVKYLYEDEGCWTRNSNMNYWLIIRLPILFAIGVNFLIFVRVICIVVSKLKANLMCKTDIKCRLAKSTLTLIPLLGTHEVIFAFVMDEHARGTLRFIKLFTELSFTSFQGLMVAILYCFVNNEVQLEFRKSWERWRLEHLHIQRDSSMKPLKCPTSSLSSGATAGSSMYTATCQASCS
pIC50: −log10 of the molar value. No end group written: not given here.
List of pIC50 values.
measure: pIC50

# binder, value reported
data = [
    ("HAEGTFTSDVSSYLEGQAAKEFIAWLVKGR (not fully specified (C-terminus)) [glucagon-like peptide-1]", 8.21),
    ("HSQGTFTSDYSKYLDSRRAQDFVQWLMNTKRNRNNIA [oxyntomodulin]", 7.11),
]
